- Tested on: SR
- assay_details: NCI tumour cell line growth inhibition, 48 h
Activity calls are given as the source filed them. Rule as the data show it: active = GI50 up to about 1.1 µM and inactive = higher.
Pick one and only one: active, inactive

Ask: What is the recorded call for this compound in the test? `CN(CCN(C)C(=O)CCn1cc(F)c(=O)[nH]c1=O)C(=O)CCn1cc(F)c(=O)[nH]c1=O`
Reply: inactive

Ask: What is the recorded call for this compound in the test? COC(=O)C(Cc1ccccc1)NC(=O)c1ccc(CNC(=S)NCc2cccc(CNC(=S)NCc3ccccc3)c2)cc1 (stereo not given)
Reply: inactive

Ask: What is the recorded call for this compound in the test? `O=C(/C=C/c1ccc2c(c1)OCO2)c1ccccc(=O)c1O`
Reply: inactive

Ask: What is the recorded call for this compound in the test? `COC(CNC(=O)CNC(=O)c1ccc(C(F)(F)F)cc1)OC`
Reply: inactive

Ask: What is the recorded call for this compound in the test? `Cc1cn(S(=O)(=O)c2ccccc2)c2c(OCc3ccccc3)cc([N+](=O)[O-])cc12`
Reply: active

====

- Tested on: UACC-257
- assay_details: NCI tumour cell line growth inhibition, 48 h
Active and inactive are the calls of the source. No stated cut-off is given here; in the data, active = GI50 up to about 1.1 µM and inactive = higher.
readout_type: GI50

Ask: Answer briefly: GI50 recorded on UACC-257 for O=C1CC2CCN(C(=O)c3ccccc3)CC2CCN1.O=C1CCC2CC(C(=O)c3ccccc3)CCC2CN1 (stereo not given)
Reply: > 100 µM (inactive)

Ask: Answer briefly: GI50 recorded on UACC-257 for `Cc1cn(S(=O)(=O)c2ccccc2)c2c(OCc3ccccc3)cc([N+](=O)[O-])cc12`
Reply: > 100 µM (inactive)

Ask: Answer briefly: GI50 recorded on UACC-257 for O=C(O)c1cccc(CC(Br)C(=O)O)c1 (stereo not given)
Reply: > 100 µM (inactive)

Ask: Answer briefly: GI50 recorded on UACC-257 for `CCOC(=O)c1sc(N/N=C2\NC(=O)/C(=C/c3ccc([N+](=O)[O-])cc3)S2)nc1C`
Reply: 15.6 µM (inactive)

Ask: Answer briefly: GI50 recorded on UACC-257 for CSC1C=C(C(C)C)CCC1(C)SC (stereo not given)
Reply: 15.9 µM (inactive)

====

- Tested on: SF-539
- assay_details: NCI tumour cell line growth inhibition, 48 h
Activity calls are given as the source filed them. Cut-off read from the data, not from the text of the source: active = GI50 up to about 1.1 µM and inactive = higher.
Pick one and only one: class 1 = active, class 0 = inactive

Ask: What is the recorded call for this compound in the test? `ClCCC[Si]12OCCN(CCO1)CCO2`
Reply: class 0

Ask: What is the recorded call for this compound in the test? N#CC1=C(N)N(c2ccccc2)C(c2ccccc2)C1(C#N)C#N (configuration not stated)
Reply: class 0

Ask: What is the recorded call for this compound in the test? N#CC1(C#N)C2C=CC(C3CCC=C32)C1(C#N)C#N (configuration not stated)
Reply: class 0

Ask: What is the recorded call for this compound in the test? `Cc1cc(N(CCC#N)CCC#N)ccc1/C=C\C(=O)Nc1ccccc1`
Reply: class 0

Ask: What is the recorded call for this compound in the test? C=C(C)CCC1CCCCC(CN(C)C)C1=O (configuration not stated)
Reply: class 0

Ask: What is the recorded call for this compound in the test? `NC(=O)c1nc(-c2ccc(Cl)c(Cl)c2)nc2ccccc12`
Reply: class 0

Ask: What is the recorded call for this compound in the test? `Cc1c(-c2cc(-c3ccccc3)n[nH]c2=O)c2ccccc2n1C`
Reply: class 0

Ask: What is the recorded call for this compound in the test? O=[N+]([O-])c1ccc(OP(=O)(O)OCC2OC(CP(=O)(O)O)C(O)C2O)cc1 (configuration not stated)
Reply: class 0

Ask: What is the recorded call for this compound in the test? O=C1CS(=O)(=O)C(c2cccc(Oc3ccccc3)c2)N1c1cccc(Cl)c1Cl (configuration not stated)
Reply: class 0

Ask: What is the recorded call for this compound in the test? `COc1ccc(NC(=O)CC/C(CC(=O)c2ccccc2Cl)=N\Nc2nnc(C)n2N)cc1`
Reply: class 0

Ask: What is the recorded call for this compound in the test? `Nc1nc(=O)c(/N=N/c2ccccc2)c(C(=O)O)[nH]1`
Reply: class 0

Ask: What is the recorded call for this compound in the test? CCc1oc2ccccc2c1C(=O)c1cc(Br)c(O)c(Br)c1 [BENZBROMARONE]
Reply: class 0

Ask: What is the recorded call for this compound in the test? CCN(CC)CCCC(C)Nc1cc(-c2ccccc2)nc2cc(OC)ccc12 (configuration not stated)
Reply: class 0

Ask: What is the recorded call for this compound in the test? `CN(C)/N=N/c1cccc(C(N)=O)c1`
Reply: class 0

Ask: What is the recorded call for this compound in the test? Nc1nc(SCCC/C=C/B(O)O)nc2c1ncn2C1OC(COP(=O)(O)O)C(O)C1O (configuration not stated)
Reply: class 0

Ask: What is the recorded call for this compound in the test? `O=C(O)CSc1nnc(-c2ccccc2O)[nH]1`
Reply: class 0

Ask: What is the recorded call for this compound in the test? `Nc1nc(Nc2ccc(Cl)cc2)sc1C(=O)c1cccs1`
Reply: class 0

Ask: What is the recorded call for this compound in the test? `COc1ccc2c(c1)/C(=C\c1c(Cl)[nH]c3cc(C)c(OC)cc13)C(=O)N2`
Reply: class 1

Ask: What is the recorded call for this compound in the test? `N#Cc1c(C#N)c(-c2ccco2)n(-c2ccccc2)c1N`
Reply: class 0

Ask: What is the recorded call for this compound in the test? CCCCCCCCCCCCCCCC(=O)NC1CCc2cc(O)c(O)c(O)c2-c2ccc(SC)c(=O)cc21 (configuration not stated)
Reply: class 0

Ask: What is the recorded call for this compound in the test? O=C(CC(=O)C(=O)Nc1ccccc1)CC(c1ccccc1)c1c(O)c2ccccc2oc1=O (configuration not stated)
Reply: class 0

Ask: What is the recorded call for this compound in the test? [N-]=[N+]=NC1C(O)C(CO)OC1n1ccc(N)nc1=O (configuration not stated)
Reply: class 0

====

- Tested on: HOP-62
- assay_details: NCI tumour cell line growth inhibition, 48 h
Activity calls are given as the source filed them. No stated cut-off is given here; in the data, active = GI50 up to about 1.1 µM and inactive = higher.
Pick one and only one: YES for active, NO for inactive

Ask: What is the recorded call for this molecule in the test? `O=C(c1cccs1)N(C(=S)OC12CC3CC(CC(C3)C1)C2)c1ccccc1`
Reply: NO

Ask: What is the recorded call for this molecule in the test? C=C1C(=O)O[C@@H]2C[C@@H](C)[C@@H]3[C@@H](OC4OC(COC(C)=O)C(O)C(O)C4O)CC(=O)[C@@]3(C)C[C@H]12 (stereo not given in full)
Reply: NO

Ask: What is the recorded call for this molecule in the test? O=C(O)CCC(/N=C(\C(=N\C(CCC(=O)O)C(=O)O)c1ccccc1)c1ccccc1)C(=O)O (stereo not given)
Reply: NO

Ask: What is the recorded call for this molecule in the test? `CCN(CC)C(=S)SS(=O)(=O)c1ccc(F)cc1`
Reply: NO

Ask: What is the recorded call for this molecule in the test? `CCCCOC(=O)NC(Nc1ccc(S(=O)(=O)Nc2ncccn2)cc1)(C(F)(F)F)C(F)(F)F`
Reply: NO

Ask: What is the recorded call for this molecule in the test? `O=C(O)Cc1cccnc1`
Reply: NO

Ask: What is the recorded call for this molecule in the test? CCCCCNC(=O)C1C(=O)N(CCCCC)C(=O)/C1=N\N (stereo not given)
Reply: NO

Ask: What is the recorded call for this molecule in the test? `CCOC(=O)c1cc2c(=Cc3ccc(N(C)C)cc3)c3ccccc3n2[n+]1C`
Reply: YES

Ask: What is the recorded call for this molecule in the test? `O=C(NC12CC3CC(CC(C3)C1)C2)n1cnc2c(Cl)ncnc21`
Reply: NO

Ask: What is the recorded call for this molecule in the test? CC(OP(=O)(O)O)C(N)C(=O)O (stereo not given)
Reply: NO

====

- Test system: M14
- assay_details: NCI tumour cell line growth inhibition, 48 h
The source made the active and inactive calls. Rule as the data show it: active = GI50 up to about 1.1 µM and inactive = higher.
readout_type: GI50

Ask: Give the reported value of GI50 for this record: `CCOC(=O)c1s/c(=N\Nc2nc3ccccc3cc2C2OCCO2)n(Cc2ccccc2)c1C`
Reply: > 100 µM (inactive)

Ask: Give the reported value of GI50 for this record: `Cc1cc(-c2nc3ccc(F)cc3s2)ccc1N`
Reply: > 100 µM (inactive)

Ask: Give the reported value of GI50 for this record: CCOC(=O)C(NCc1cccc(C(F)(F)F)c1)(NC(=O)c1ccccc1)C(F)(F)F (stereo unspecified)
Reply: 27.8 µM (inactive)

Ask: Give the reported value of GI50 for this record: `Cn1c2ccccc2c2ccc3c(c21)C(=O)c1ccc2c4ccccc4n(C)c2c1C3=O`
Reply: > 100 µM (inactive)

Ask: Give the reported value of GI50 for this record: CC1(C)CCc2c(ccc(C(=O)/C=C/c3ccc(O)cc3)c2O)O1 [DORSMANNIN A]
Reply: 10.9 µM (inactive)

Ask: Give the reported value of GI50 for this record: CC1(C)COC2C(N(Cc3ccccc3)Cc3ccccc3)C(=O)N21 (stereo unspecified)
Reply: 23.1 µM (inactive)

Ask: Give the reported value of GI50 for this record: `S=C(CSc1ccccc1)Nc1cccc2ccccc12`
Reply: 54.2 µM (inactive)

Ask: Give the reported value of GI50 for this record: CC(=O)O[C@@H]1C2C(=O)OC(=O)C2C2CCC[C@]23O[C@H]13 (stereo partly specified)
Reply: > 100 µM (inactive)

Ask: Give the reported value of GI50 for this record: `Cc1ccc(Cl)c2[nH]c(-c3ccccc3)cc(=O)c12`
Reply: 39.8 µM (inactive)

Ask: Give the reported value of GI50 for this record: `CCOC(=O)Nc1ccc(S(=O)(=O)NCCCl)cc1.CCOC(=O)Nc1ccc(S(=O)(=O)NCCCl)cc1.O=C(O)c1ccc(/N=N/Cl)cc1O`
Reply: > 100 µM (inactive)

Ask: Give the reported value of GI50 for this record: C=C1CC(C)(COc2ccc3c(C)cc(=O)oc3c2)OC1=O (stereo unspecified)
Reply: 1.34 µM (inactive)
